System: RXF 393 renal
experiment.summary: NCI-60 one-dose screen, 48 h
protocol.conditions: 10 µM unless noted
Compounds without any hit were thinned out: in the full panel of roughly 83,000, 20% have a hit. Activity calls are given as the source filed them. Rule for the calls: active = growth percent below 10; inactive = the rest.
Outcome codes: YES = active, NO = inactive

> print(dat)
                                    molecule  class.label
 1  O=C1/C(=C/C2=Cc3ccccc3OC2)SC(=S)N1c1ccc(F)cc1           NO
 2  CCOC(=O)c1c(Nc2ccccc2)nn2c(N)c(C#N)c(-c3ccccc3)nc12           NO
 3  COc1ccc(NC(=O)c2sc3nc(-c4cnccn4)cc(-c4cccs4)c3c2N)cc1           NO
 4  CN(C)c1ccc(-c2c(NC(C)(C)C)nc3c(OCCc4ccccc4)cccn23)cc1          YES
 5  Cc1nc(-c2cc3ccccc3oc2=O)ccc1C(=O)/C=C/c1ccc(Cl)c(Cl)c1           NO
 6  O=C(CSc1nc2sc3c(c2c(=O)n1-c1ccc(Cl)cc1)CCCC3)N/N=C/c1ccc(F)cc1           NO
 7  CC(=O)c1ccc(Nc2nc(SC(C)C)nc(-c3ccccc3)c2C#N)cc1           NO
 8    N#Cc1nc(-c2ccccc2)oc1S(=O)(=O)N1CCCCC1          YES
 9  CSCCC(C(=O)O)N1C(=O)/C(=C/c2ccc(O)c(O)c2)SC1=S (stereo unspecified)           NO
10  COc1ccc(COc2ccc(/C=C3/C(=O)Nc4cc(Cl)ccc43)cc2)cc1           NO
11  Cc1cc2nc3c4cc(Cl)ccc4n(CC(=S)NCCN(C)C)c3nc2cc1C          YES
12  COC(=O)C(C)NS(=O)(=O)/N=C1\NC(=O)NC1=C(Cl)Cl (stereo unspecified)           NO
13  NS(=O)(=O)c1cccc(Nc2nc(SCC(=O)c3ccc(Br)cc3)nc3ccccc23)c1           NO
14  O=C(N/N=C/c1ccc(Cl)s1)c1[nH]c2ccc(Br)cc2c1-c1ccccc1           NO
15  Nc1c(C(=O)c2ccc(Br)cc2)oc2nc(-c3cnccn3)cc(-c3cccs3)c12           NO
16  Nc1nc(N)c2c(n1)NC(c1ccc(C(F)(F)F)cc1)CC(c1ccc(Nc3nc(NCCO)nc(Nc4ccc(Cl)cc4)n3)cc1)=N2 (stereo unspecified)          YES
17  COc1cc(/C=C/C(=O)c2ccc(F)cc2)ccc1Oc1nc(NCCO)nc(N2CCOCC2)n1           NO
18  COc1cccc(-c2nn(-c3ccccc3)cc2-c2ccnc(N3CCN(C(=O)c4ccccc4)CC3)c2)c1           NO
19  CCCC(=O)NC(c1ccc2c(c1)OC(F)(F)O2)c1cc(C)c2cccnc2c1O (stereo unspecified)           NO
20     COc1ccc(-c2nn3c(-c4ccccc4F)nnc3s2)cc1           NO
21  CC(C)NC(=O)c1cc(-c2ccc(NC(=O)Nc3ccc(N4CCOCC4)c(C(F)(F)F)c3)cc2)nc2cccnc12          YES
22  NS(=O)(=O)c1ccc(Nc2nc(Nc3ccccc3)nc(-n3nc(-c4ccccc4)cc3-c3ccccc3)n2)cc1           NO
23  NS(=O)(=O)c1cccc(Nc2nc(SCC(=O)c3ccc(Cl)cc3)nc3ccccc23)c1           NO
24  CC(=O)Oc1ccccc1C(=O)Nc1ccc(C(=O)/C=C/c2ccncc2)cc1          YES
25  CCOC(=O)c1c(Nc2ccccc2)nn2c(N)c(C#N)c(-c3ccc(OC)cc3)nc12           NO
26             O=[N+]([O-])c1ccc(O)c2ncccc12           NO
27  N[C@@H](Cc1cn(-c2c3ccccc3nc3ccccc23)nn1)C(=O)O           NO
28    COc1ccc(/C=N/Nc2ccnc3cc(Cl)ccc23)cc1Cl          YES
29  OC1CCc2c(-c3ccc4ncnc(N5CCc6cc(F)c(Cl)cc65)c4c3)cncc21 (stereo unspecified)          YES
30  CN1CCc2c(sc3ncnc(N/N=C/c4ccc(Cl)c(Cl)c4)c23)C1           NO
31  CC1=C(C)C(=O)C(Nc2cccc(C(F)(F)F)c2)=C(Cl)C1=O           NO
